assay.target: Nuclear receptor subfamily 1 group I member 2 (Homo sapiens)
protocol.notes: ATG_PXR_TRANS: Attagene TRANS-FACTORIAL HepG2 Assay for human Pregnane X Receptor (PXR) (AID 2283008)
Records with an inconclusive call do not appear. The source made the active and inactive calls. Rule for the calls: active = hit-call score of the fitted dose curve at least 0.9, where 1 is the maximum; inconclusive = response in the unintended direction; inactive = score below 0.9.
parameter.measured: AC50

compound	parameter.measured	reading
CC(C)[C@H](C(=O)O[C@H](C#N)c1cccc(Oc2ccccc2)c1)c1ccc(Cl)cc1	AC50	5 µM (active)
CNc1cnn(-c2cccc(C(F)(F)F)c2)c(=O)c1Cl	AC50	inactive
C=C(C)[C@H]1Cc2c(ccc3c2O[C@@H]2COc4cc(OC)c(OC)cc4[C@@H]2C3=O)O1	AC50	inactive
CON=C(C(=O)OC)c1ccccc1CON=C(C)c1cccc(C(F)(F)F)c1	AC50	inactive
C#CC(C)(C)NC(=O)c1cc(Cl)cc(Cl)c1	AC50	30.9 µM (active)
C#CCC1=C(C)C(OC(=O)C2C(C=C(C)C)C2(C)C)CC1=O (stereo unspecified)	AC50	3.12 µM (active)
CN(C)C(=O)Nc1cccc(C(F)(F)F)c1	AC50	inactive
COc1cccc(C(=O)NN(C(=O)c2cc(C)cc(C)c2)C(C)(C)C)c1C	AC50	inactive
O=C(O)c1cc(Oc2ccc(C(F)(F)F)cc2Cl)ccc1[N+](=O)[O-]	AC50	inactive
CC(COc1ccc(Oc2ccccc2)cc1)Oc1ccccn1 (stereo unspecified)	AC50	inactive
CNC(=O)Oc1cccc2c1OC(C)(C)O2	AC50	inactive
CC(C)=CC1C(C(=O)OCN2C(=O)C3=C(CCCC3)C2=O)C1(C)C (stereo unspecified)	AC50	40.2 µM (active)
CCc1cccc(CC)c1N(COC)C(=O)CCl	AC50	inactive
O=c1ccc(=O)[nH][nH]1	AC50	inactive
Nc1c(Cl)cc([N+](=O)[O-])cc1Cl	AC50	inactive
CSc1nc(NC(C)C)nc(NC(C)C)n1	AC50	18.4 µM (active)
S=C1NCCN1	AC50	inactive
CC(C1CC1)C(O)(Cn1cncn1)c1ccc(Cl)cc1 (stereo unspecified)	AC50	inactive
N#CSCSC#N	AC50	inactive
CCCSP(=O)(OCC)SCCC	AC50	inactive
CCOP(=S)(OCC)Oc1ccc([N+](=O)[O-])cc1	AC50	19.9 µM (active)
CCCCN(CC)c1c([N+](=O)[O-])cc(C(F)(F)F)cc1[N+](=O)[O-]	AC50	14.4 µM (active)
CNC(=O)ON=C(C)SC	AC50	inactive
CCCCSP(=O)(SCCCC)SCCCC	AC50	inactive
Cc1cc(C2CC2)nc(Nc2ccccc2)n1	AC50	inactive
FC(F)C(F)(F)OCC(Cn1cncn1)c1ccc(Cl)cc1Cl (stereo unspecified)	AC50	inactive
